B1: HDV Ribozyme (parent)
chain: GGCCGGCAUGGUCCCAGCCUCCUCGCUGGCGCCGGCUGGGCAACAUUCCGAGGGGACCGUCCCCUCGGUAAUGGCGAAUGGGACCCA

- Variants of: B1
- procedure text: self-cleavage, relative activity (ratio to wild type); higher = more cleavage; co-transcriptional
param class (str): category from self-cleavage; see ranges 0 (below 0.1), 1 (0.1 to below 0.5), 2 (0.5 or more)

| var | assigned label |
| --- | --- |
| G54C C64U | 2 |
| G10A A78C | 1 |
| U23A G53C | 2 |
| G34C G74A | 0 |
| A71U C85U | 2 |
| C3G C21G | 0 |
| C33U A51U | 2 |
| C15A G53U | 2 |
| G28C G34U | 0 |
| C24U G50U | 2 |
| A43U C48U | 2 |
| C24A U60C | 2 |
| G54C G67C | 2 |
| G28U C84A | 0 |
| U47G C61A | 2 |
| C36G C48U | 1 |
| G29C C86U | 0 |
| A16C U46A | 1 |
| C44U U65C | 2 |
| A71G C75A | 1 |
| G35A G50C | 1 |
| G10C C62G | 2 |
| C64G G80A | 2 |
| A45G C49A | 2 |
| G2A A8G | 0 |
| C62G G74U | 1 |
| G34U C84A | 1 |
| G35C C58A | 1 |
| U27G C85U | 2 |
| C24G C84U | 1 |
| C19U C64A | 0 |
| G5C G39C | 0 |
| C26G C49U | 2 |
| U27A G28C | 0 |
| C13A C33U | 1 |
| C24A U46A | 1 |
| G17A C33G | 0 |
| C13U | 2 |
| C30U C62G | 1 |
| G5U C30U | 1 |
| G31U U79A | 1 |
| U12A G67U | 1 |
| C13A G82C | 1 |
| G2U C30U | 0 |
| C30A C86G | 1 |
| G25U G28C | 1 |
| G1U A16U | 1 |
| U37A A56U | 1 |
| G31U A87G | 1 |
| C13A G55U | 0 |
| A71G G81A | 1 |
| G31U A51U | 2 |
| C24G C75U | 0 |
| A42U C58G | 1 |
| G6U C32U | 2 |
| G29A G54C | 1 |
| G1C G67C | 1 |
| C36U G38C | 1 |
| G53C C75U | 1 |
| C24G U72G | 0 |
| C22U C44U | 1 |
| G1A G10A | 1 |
| C18G G81C | 0 |
| A51C C85A | 2 |
| C41U U47A | 2 |
| U65A C84A | 2 |
